Assay: drug combination growth inhibition, ovarian cancer – cell-based, oncology-focused library, rucaparib conditional, profiling panel (AID 1508598)
Conditions: patient-derived ovarian cancer cells, CellTiter-Glo viability, 144 h; at 0.0781 µM; OCI-C5x cells; without rucaparib; active compounds read low
Measure Name: viability (%)
Your answer should be a plain number; it is taken to be in %.

>>> measurement("CC[C@@H]1C(=O)N(C)c2cnc(Nc3ccc(C(=O)NC4CCC(N5CCN(CC6CC6)CC5)CC4)cc3OC)nc2N1C(C)C (some centres undefined)")
32.9
>>> measurement("O=C(c1cc(Cc2n[nH]c(=O)c3ccccc23)ccc1F)N1CCN(C(=O)C2CC2)CC1")
119
>>> measurement("CCOc1cc(N2CCC(O)CC2)ccc1Nc1ncc2c(n1)N(C)c1ccccc1C(=O)N2C")
124
>>> measurement("NC(=O)C1CCCc2c1[nH]c1ccc(Cl)cc21 (centres undefined)")
112
>>> measurement("O=C(Nc1cccnc1)N1CCC(Cc2cccc(Oc3ccc(C(F)(F)F)cn3)c2)CC1")
117
>>> measurement("CC(C)(C)Cn1c(N)nc2ccc(-c3[nH]c(C(C)(C)C)nc3-c3ccc(F)cc3)nc21")
117
>>> measurement("Cc1cc2c(F)c(Oc3ncnn4cc(OC[C@@H](C)O)c(C)c34)ccc2[nH]1")
141
>>> measurement("Cc1ccc2nc(NC(=O)CSc3nc4c(c(=O)n3-c3ccccc3)SCC4)sc2c1")
115

Please find the next compound below.
Value of measured viability for the entry COc1cc(Nc2ncc(F)c(Nc3ccc4c(n3)NC(=O)C(C)(C)O4)n2)cc(OC)c1OC : 114

Where do these numbers come from? They come from PubChem BioAssay.
